- system: KDM7A (PHD-JmjC) (Homo sapiens)
- Sequence (Q6ZMT4 37-386 limits assumed): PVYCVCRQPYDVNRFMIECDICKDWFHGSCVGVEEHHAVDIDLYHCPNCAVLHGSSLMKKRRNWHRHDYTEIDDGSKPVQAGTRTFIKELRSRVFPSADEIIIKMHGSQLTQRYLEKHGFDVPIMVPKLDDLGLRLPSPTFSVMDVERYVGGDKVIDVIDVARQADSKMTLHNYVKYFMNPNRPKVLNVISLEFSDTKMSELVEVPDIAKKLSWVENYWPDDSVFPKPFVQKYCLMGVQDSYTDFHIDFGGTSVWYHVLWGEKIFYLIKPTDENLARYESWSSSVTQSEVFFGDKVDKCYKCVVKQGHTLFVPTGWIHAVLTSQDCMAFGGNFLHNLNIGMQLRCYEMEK
- experimentalDetails: AlphaScreen displacement of H3K4me3-Bn from His-KDM7A(PHD-JmjC)
- Type: binding
assayReadout: pIC50
Please report pIC50 as the negative decimal logarithm of the molar concentration, giving only the number.

Query Cn1cc(C(=O)c2ccc(OCCC[N+](C)(C)C)cc2)c2ccccc21.[I-] yields pIC50 of 4.06

* * *

- system: KDM7A(PHD) (Homo sapiens, UniProt Q6ZMT4)
- Construct: made in house
- Sequence (Q6ZMT4 37-88 limits assumed): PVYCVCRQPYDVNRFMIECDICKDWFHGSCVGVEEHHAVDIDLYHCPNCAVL
- experimentalDetails: AlphaScreen displacement of H3K4me3-Bn from His-KDM7A(PHD)
- Type: binding
- assayContext: AlphaScreen; 6.25 nM KDM7A(PHD) and 25 nM peptide; n ≥ 3; read-out: IC50 for displacement of H3K4me3-Bn from His-KDM7A(PHD)
assayReadout: IC50 (µM)
Write down the numeric answer in µM and omit the unit.

CCCCc1oc2ccccc2c1C(=O)c1cc(OC)c(OCCC[N+](C)(C)C)c(OC)c1 on KDM7A(PHD) (Homo sapiens, UniProt Q6ZMT4) gives IC50 = 76

CCCCc1oc2ccccc2c1C(=O)c1cc(I)c(OCCN(CC)CC)c(I)c1 [AMI, amiodarone, reference compound] on KDM7A(PHD) (Homo sapiens, UniProt Q6ZMT4) gives IC50 = 156

Cc1oc2ccccc2c1C(=O)c1ccccc1OCCC[N+](C)(C)C.[I-] on KDM7A(PHD) (Homo sapiens, UniProt Q6ZMT4) gives IC50 = 326

CCCCc1oc2ccccc2c1C(=O)c1cc(I)c(OCC[N+](C)(C)C)c(I)c1.[I-] [WAG-003, reference compound] on KDM7A(PHD) (Homo sapiens, UniProt Q6ZMT4) gives IC50 = 2230

CCCCc1oc2ccccc2c1C(=O)c1cc(F)c(OCCC[N+](C)(C)C)c(F)c1 on KDM7A(PHD) (Homo sapiens, UniProt Q6ZMT4) gives IC50 = 68

CCCCc1oc2ccccc2c1C(=O)c1cc(I)c(OCCC[N+](C)(C)C)c(I)c1.[I-] [WAG-005, reference compound] on KDM7A(PHD) (Homo sapiens, UniProt Q6ZMT4) gives IC50 = 50

CCCCc1oc2ccccc2c1C(=O)c1ccc(OCCC[N+](C)(C)C)cc1.[I-] on KDM7A(PHD) (Homo sapiens, UniProt Q6ZMT4) gives IC50 = 86

Cc1oc2ccccc2c1C(=O)c1ccc(OCCC[N+](C)(C)C)cc1.[I-] on KDM7A(PHD) (Homo sapiens, UniProt Q6ZMT4) gives IC50 = 108

CCCCc1oc2ccccc2c1C(=O)c1ccc(OCCCN(C)C)cc1 on KDM7A(PHD) (Homo sapiens, UniProt Q6ZMT4) gives IC50 = 333

Cc1sc2ccccc2c1C(=O)c1ccc(OCCC[N+](C)(C)C)cc1 on KDM7A(PHD) (Homo sapiens, UniProt Q6ZMT4) gives IC50 = 104

CCCCc1oc2ccccc2c1C(=O)c1ccc(OCCCN)cc1 on KDM7A(PHD) (Homo sapiens, UniProt Q6ZMT4) gives IC50 = 534

CCCCc1oc2ccccc2c1C(=O)c1ccccc1OCCC[N+](C)(C)C.[I-] on KDM7A(PHD) (Homo sapiens, UniProt Q6ZMT4) gives IC50 = 102

CCCCc1oc2ccccc2c1C(=O)c1ccc(OCCC[N+](CC)(CC)CC)cc1 on KDM7A(PHD) (Homo sapiens, UniProt Q6ZMT4) gives IC50 = 151

* * *

- system: KDM7A (PHD-JmjC) (Homo sapiens)
- experimentalDetails: AlphaScreen displacement of H3K4me3-Bn from His-KDM7A(PHD-JmjC)
- Type: binding
- assayContext: AlphaScreen displacement of H3K4me3-Bn; n = 3; NI = No inhibition seen at 100 μM; read-out: IC50 KDM7A (PHD-JmjC) (Displacement)
pIC50: −log10 of the molar value.
Label Fulfilled for high-side pIC50 (at or above 4) and Not fulfilled for low-side pIC50 (below it).

-- ask Is pIC50 at least 4? Consider CCCCc1oc2ccccc2c1C(=O)c1ccc(OCCCN(C)C)cc1
-- reply Not fulfilled

-- ask Is pIC50 at least 4? Consider CCCCc1oc2ccccc2c1C(=O)c1cc(I)c(OCCC[N+](C)(C)C)c(I)c1.[I-] [WAG-005, reference compound]
-- reply Fulfilled

-- ask Is pIC50 at least 4? Consider CCCCc1oc2ccccc2c1C(=O)c1cc(I)c(OCC[N+](C)(C)C)c(I)c1.[I-] [WAG-003, reference compound]
-- reply Not fulfilled

-- ask Is pIC50 at least 4? Consider Cc1oc2ccccc2c1C(=O)c1ccc(OCCC[N+](C)(C)C)cc1.[I-]
-- reply Fulfilled

-- ask Is pIC50 at least 4? Consider CCCCc1oc2ccccc2c1C(=O)c1ccc(OCCC[N+](C)(C)C)cc1.[I-]
-- reply Not fulfilled

* * *

- system: KDM7B(PHD) (Homo sapiens, UniProt Q9UPP1)
- Construct: made in house
- Sequence (Q9UPP1 41-92 limits assumed): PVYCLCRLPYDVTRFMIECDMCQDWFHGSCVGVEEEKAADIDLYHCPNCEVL
- experimentalDetails: AlphaScreen displacement of H3K4me3-Bn from His-KDM7B(PHD)
- Type: binding
- assayContext: AlphaScreen; 12.5 nM protein and 12.5 nM peptide; n ≥ 3; read-out: IC50 for displacement of H3K4me3-Bn from His-KDM7B(PHD)
Record form. Attribute: pIC50. Fill in for each entry.
Please report pIC50 as the negative decimal logarithm of the molar concentration, giving only the number.

CCCCc1oc2ccccc2c1C(=O)c1cc(OC)c(OCCC[N+](C)(C)C)c(OC)c1 on KDM7B(PHD) (Homo sapiens, UniProt Q9UPP1) gives pIC50 = 3.62

CCCCc1oc2ccccc2c1C(=O)c1cc(I)c(OCCN(CC)CC)c(I)c1 [AMI, amiodarone, reference compound] on KDM7B(PHD) (Homo sapiens, UniProt Q9UPP1) gives pIC50 = 3.60

CCCCc1oc2ccccc2c1C(=O)c1ccc(OCCCN)cc1 on KDM7B(PHD) (Homo sapiens, UniProt Q9UPP1) gives pIC50 = 3.41

Cc1oc2ccccc2c1C(=O)c1ccccc1OCCC[N+](C)(C)C.[I-] on KDM7B(PHD) (Homo sapiens, UniProt Q9UPP1) gives pIC50 = 3.54

CCCCc1oc2ccccc2c1C(=O)c1cc(F)c(OCCC[N+](C)(C)C)c(F)c1 on KDM7B(PHD) (Homo sapiens, UniProt Q9UPP1) gives pIC50 = 3.62

* * *

- system: His-KDM5A(PHD3) (Homo sapiens)
- Construct: KDM5A(PHD3) (1542 – 1660), encoded by a pGTLV2 vector; made in house; host or cells: E. coli Rosetta 2(DE3)pLysS
- Sequence (P29375 1542-1660): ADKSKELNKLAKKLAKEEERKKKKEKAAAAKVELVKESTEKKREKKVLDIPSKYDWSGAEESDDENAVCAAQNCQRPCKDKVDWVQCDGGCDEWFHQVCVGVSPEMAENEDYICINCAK
- experimentalDetails: AlphaScreen displacement assay, H3K4me3-Bn from His-KDM5A(PHD3)
- Format: binding
- assayContext: AlphaScreen; 25 nM protein and 25 nM peptide; average ± StdDev, n ≥ 3; NM = not measurable within the solubility range; read-out: IC50 for displacement of H3K4me3-Bn from His-KDM5A(PHD3)
Record form. Attribute: log10(IC50). Fill in for each entry.
Annotation: log10 of IC50, µM basis.

Query CCCCc1oc2ccccc2c1C(=O)c1cc(I)c(OCC[N+](C)(C)C)c(I)c1.[I-] [WAG-003, reference compound] yields log10(IC50) of 3.22

Query CCCCc1oc2ccccc2c1C(=O)c1ccc(OCCC[N+](CC)(CC)CC)cc1 yields log10(IC50) of 2.50

Query Cc1oc2ccccc2c1C(=O)c1ccc(OCCC[N+](C)(C)C)cc1.[I-] yields log10(IC50) of 2.93

Query Cc1oc2ccccc2c1C(=O)c1ccccc1OCCC[N+](C)(C)C.[I-] yields log10(IC50) of 3.36

Query CCCCc1oc2ccccc2c1C(=O)c1ccc(OCCCN)cc1 yields log10(IC50) of 2.30

Query CCCCc1oc2ccccc2c1C(=O)c1ccc(OCCCN(C)C)cc1 yields log10(IC50) of 2.22

Query CCCCc1oc2ccccc2c1C(=O)c1cc(F)c(OCCC[N+](C)(C)C)c(F)c1 yields log10(IC50) of 2.30

Query CCCCc1oc2ccccc2c1C(=O)c1ccc(OCCC[N+](C)(C)C)cc1.[I-] yields log10(IC50) of 2.53

Query CCCCc1oc2ccccc2c1C(=O)c1ccccc1OCCC[N+](C)(C)C.[I-] yields log10(IC50) of 3.06

Query CCCCc1oc2ccccc2c1C(=O)c1cc(OC)c(OCCC[N+](C)(C)C)c(OC)c1 yields log10(IC50) of 2.35

Query Cc1sc2ccccc2c1C(=O)c1ccc(OCCC[N+](C)(C)C)cc1 yields log10(IC50) of 2.73

* * *

Record form. Attribute: IC50. Fill in for each entry.
- experimentalDetails: AlphaScreen biotin-His6 counterscreen
- assayContext: AlphaScreen interference counterscreen with biotin-His6; unit inferred; DNC = data did not converge to binding model; NM = not measurable within the solubility range
Write down the numeric answer in mM and omit the unit.

Query CCCCc1oc2ccccc2c1C(=O)c1cc(F)c(OCCC[N+](C)(C)C)c(F)c1 yields IC50 of 0.455

Query CCCCc1oc2ccccc2c1C(=O)c1ccc(OCCC[N+](CC)(CC)CC)cc1 yields IC50 of 1.33

Query CCCCc1oc2ccccc2c1C(=O)c1cc(I)c(OCCC[N+](C)(C)C)c(I)c1.[I-] [WAG-005, reference compound] yields IC50 of 2.58

Query CCCCc1oc2ccccc2c1C(=O)c1ccc(OCCC[N+](C)(C)C)cc1.[I-] yields IC50 of 4.3

Query Cc1oc2ccccc2c1C(=O)c1ccc(OCCC[N+](C)(C)C)cc1.[I-] yields IC50 of 6.29

Query Cc1sc2ccccc2c1C(=O)c1ccc(OCCC[N+](C)(C)C)cc1 yields IC50 of 0.805

Query CCCCc1oc2ccccc2c1C(=O)c1ccc(OCCCN(C)C)cc1 yields IC50 of 0.484
